PROTOCOL DETAILS: Human plasma concentration-time (AUC) and tolerability
Assay type: in vivo
RECORDED CONDITIONS: 50 μM metronidazole exposure, achievable in humans, read-out: human AUC equivalent to the protective exposure
MEASUREMENT TYPE: AUC (µM·h)
Answer format: numeric, µM·h implied, no suffix.

Lookup: What AUC value was documented for this compound, Cc1ncc([N+](=O)[O-])n1CCO ?
Found: 1200
